System: 292921-168-R-J2-PDC complex spheroid growth
Assay: Anticancer human tumor 292921-168-R-J2-PDC patient-derived pancreatic carcinoma cell line growth inhibition [AhR]; active means viability on the fitted dose curve at most 10% of control; inactive means the rest
Details: second compound 10 µM; first compound 0.0316 µM
Entry note: the call must match one of TRUE for active, FALSE for inactive

// known answers, use as guide
>>> assigned_category("Nc1ncn(C2CC(O)C(CO)O2)c(=O)n1 (configuration not stated) + Cc1ccccc1N=Nc1ccc(NC(=O)c2ccnn2C)c(C)c1")
"FALSE"
>>> assigned_category("O=C(c1cc(Cc2n[nH]c(=O)c3ccccc23)ccc1F)N1CCN(C(=O)C2CC2)CC1 + Cc1cncc(-c2nc(NCCc3c[nH]c4ccccc34)c3ncn(C(C)C)c3n2)c1")
"FALSE"

Entry Nc1ccn(C2OC(CO)C(O)C2(F)F)c(=O)n1 (configuration not stated) + Cc1ccccc1N=Nc1ccc(NC(=O)c2ccnn2C)c(C)c1 : call = ? TRUE

====

Test system: 292921-168-R-J2-PDC complex spheroid growth
Assay: Anticancer human tumor 292921-168-R-J2-PDC cell line growth inhibition [AhR];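 further: spheroids exposed to compounds for seven days after three days of growth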
Details: curve of first compound; second compound 10 µM
IC50 overview
Write down the numeric answer in nM and omit the unit.

>>> measurement("CC[C@@]1(O)C(=O)OCc2c1cc1n(c2=O)Cc2cc3c(CN(C)C)c(O)ccc3nc2-1 + Cc1cncc(-c2nc(NCCc3c[nH]c4ccccc34)c3ncn(C(C)C)c3n2)c1")
1.19
>>> measurement("CC(C)c1c(-c2ccccc2)nc2c(C#N)c[nH]n2c1=O + Cc1cncc(-c2nc(NCCc3c[nH]c4ccccc34)c3ncn(C(C)C)c3n2)c1")
386

Next:
Please report IC50 with 292921-168-R-J2-PDC complex spheroid growth for item COc1ccc([C@@H](O)c2cc(-c3ncnc4cc(N5CCOCC5)ccc34)c(F)cc2Cl)nn1 + Cc1ccccc1N=Nc1ccc(NC(=O)c2ccnn2C)c(C)c1 . 529

====

Tested on: 292921-168-R-J2-PDC complex spheroid growth
Experiment: Anticancer human tumor 292921-168-R-J2-PDC cell line growth inhibition [AhR];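 further: spheroids exposed to compounds for seven days after three days of growth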
Conditions: second compound 3.16 µM; first compound 0.000316 µM; stronger effect = lower value
viability, T/C overview

Below, each entry is followed by its recorded viability, T/C result.
>>> measurement("Cn1ncnc1C1c2n[nH]c(=O)c3cc(F)cc(c23)NC1c1ccc(F)cc1 (stereo unspecified) + CC(CO)NC(=O)c1cc(-c2ccc(Cl)cc2)nn(-c2cnn(C)c2)c1=O")
"92.2%"
>>> measurement("CC[C@@]1(O)C(=O)OCc2c1cc1n(c2=O)Cc2cc3c(CN(C)C)c(O)ccc3nc2-1 + Cc1cncc(-c2nc(NCCc3c[nH]c4ccccc34)c3ncn(C(C)C)c3n2)c1")
"69.9%"
>>> measurement("Cn1ncnc1C1c2n[nH]c(=O)c3cc(F)cc(c23)NC1c1ccc(F)cc1 (stereo unspecified) + Cc1cncc(-c2nc(NCCc3c[nH]c4ccccc34)c3ncn(C(C)C)c3n2)c1")
"68.7%"
>>> measurement("CC[C@@]1(O)C(=O)OCc2c1cc1n(c2=O)Cc2cc3c(CN(C)C)c(O)ccc3nc2-1 + CC(CO)NC(=O)c1cc(-c2ccc(Cl)cc2)nn(-c2cnn(C)c2)c1=O")
"91.4%"

Consider the molecule Cn1ncnc1C1c2n[nH]c(=O)c3cc(F)cc(c23)NC1c1ccc(F)cc1 (stereo unspecified) + Cc1ccccc1N=Nc1ccc(NC(=O)c2ccnn2C)c(C)c1 and give its recorded viability, T/C. 80.9%

Consider the molecule CC[C@@]1(O)C(=O)OCc2c1cc1n(c2=O)Cc2cc3c(CN(C)C)c(O)ccc3nc2-1 + Cc1ccccc1N=Nc1ccc(NC(=O)c2ccnn2C)c(C)c1 and give its recorded viability, T/C. 76%

====

Tested on: 292921-168-R-J2-PDC complex spheroid growth
Test: Anticancer human tumor 292921-168-R-J2-PDC cell line growth inhibition [AhR];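 further: spheroids exposed to compounds for seven days after three days of growth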
Conditions: curve of first compound; second compound 10 µM
IC50 overview
Write down the numeric answer in nM and omit the unit.

>>> measurement("COc1cc(C2c3cc4c(cc3C(OC3OC5COC(C)OC5C(O)C3O)C3COC(=O)C23)OCO4)cc(OC)c1O (configuration not stated) + Cc1ccccc1N=Nc1ccc(NC(=O)c2ccnn2C)c(C)c1")
105
>>> measurement("Cn1ncnc1C1c2n[nH]c(=O)c3cc(F)cc(c23)NC1c1ccc(F)cc1 (configuration not stated) + Cc1cncc(-c2nc(NCCc3c[nH]c4ccccc34)c3ncn(C(C)C)c3n2)c1")
35.1
>>> measurement("O=C(c1cc(Cc2n[nH]c(=O)c3ccccc23)ccc1F)N1CCN(C(=O)C2CC2)CC1 + Cc1ccccc1N=Nc1ccc(NC(=O)c2ccnn2C)c(C)c1")
4550

Please report IC50 with 292921-168-R-J2-PDC complex spheroid growth for item O=C(C=Cn1cnc(-c2cc(C(F)(F)F)cc(C(F)(F)F)c2)n1)NNc1cnccn1 + Cc1ccccc1N=Nc1ccc(NC(=O)c2ccnn2C)c(C)c1 . 29.1

Please report IC50 with 292921-168-R-J2-PDC complex spheroid growth for item COc1ccc([C@@H](O)c2cc(-c3ncnc4cc(N5CCOCC5)ccc34)c(F)cc2Cl)nn1 + CC(CO)NC(=O)c1cc(-c2ccc(Cl)cc2)nn(-c2cnn(C)c2)c1=O . 1060

====

Tested on: 292921-168-R-J2-PDC complex spheroid growth
Experiment: Anticancer human tumor 292921-168-R-J2-PDC cell line growth inhibition [AhR];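 further: spheroids exposed to compounds for seven days after three days of growth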
Conditions: second compound 0.316 µM; first compound 0.00949 µM; stronger effect = lower value
hey, just use y if measured viability, T/C is less than 90%, otherwise n

// known answers, use as guide
>>> assigned_category("O=C(C=Cn1cnc(-c2cc(C(F)(F)F)cc(C(F)(F)F)c2)n1)NNc1cnccn1 + Cc1ccccc1N=Nc1ccc(NC(=O)c2ccnn2C)c(C)c1")
"n"
>>> assigned_category("CCN(c1cc(-c2ccc(CN3CCOCC3)cc2)cc(C(=O)NCc2c(C)cc(C)[nH]c2=O)c1C)C1CCOCC1 + Cc1ccccc1N=Nc1ccc(NC(=O)c2ccnn2C)c(C)c1")
"n"
>>> assigned_category("CC(C)CC(NC(=O)C(Cc1ccccc1)NC(=O)c1cnccn1)B(O)O (stereo unspecified) + Cc1cncc(-c2nc(NCCc3c[nH]c4ccccc34)c3ncn(C(C)C)c3n2)c1")
"y"
>>> assigned_category("CC(C)CC(NC(=O)C(Cc1ccccc1)NC(=O)c1cnccn1)B(O)O (stereo unspecified) + Cc1ccccc1N=Nc1ccc(NC(=O)c2ccnn2C)c(C)c1")
"y"

Could you now consider this next compound?
Is the reported viability, T/C for CCc1c2c(nc3ccc(O)cc13)-c1cc3c(c(=O)n1C2)COC(=O)[C@]3(O)CC + CC(CO)NC(=O)c1cc(-c2ccc(Cl)cc2)nn(-c2cnn(C)c2)c1=O strictly below 90%? y

====

System: 292921-168-R-J2-PDC complex spheroid growth
Experiment: Anticancer human tumor 292921-168-R-J2-PDC cell line growth inhibition [AhR];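 further: spheroids exposed to compounds for seven days after three days of growth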
Conditions: curve of first compound; second compound 10 µM
READOUT_KIND: IC50

Below, each entry is followed by its recorded IC50 result.
>>> measurement("CC(C)CC(NC(=O)C(Cc1ccccc1)NC(=O)c1cnccn1)B(O)O (stereo unspecified) + Cc1cncc(-c2nc(NCCc3c[nH]c4ccccc34)c3ncn(C(C)C)c3n2)c1")
"< 0.949 nM"
>>> measurement("Nc1ncn(C2CC(O)C(CO)O2)c(=O)n1 (stereo unspecified) + Cc1ccccc1N=Nc1ccc(NC(=O)c2ccnn2C)c(C)c1")
"> 1000 nM"
>>> measurement("CCN(c1cc(-c2ccc(CN3CCOCC3)cc2)cc(C(=O)NCc2c(C)cc(C)[nH]c2=O)c1C)C1CCOCC1 + Cc1ccccc1N=Nc1ccc(NC(=O)c2ccnn2C)c(C)c1")
"1430 nM"
>>> measurement("Nc1ccccc1NC(=O)c1ccc(CNC(=O)OCc2cccnc2)cc1 + Cc1ccccc1N=Nc1ccc(NC(=O)c2ccnn2C)c(C)c1")
"< 31.6 nM"
>>> measurement("COc1cc(C2c3cc4c(cc3C(OC3OC5COC(C)OC5C(O)C3O)C3COC(=O)C23)OCO4)cc(OC)c1O (stereo unspecified) + CC(CO)NC(=O)c1cc(-c2ccc(Cl)cc2)nn(-c2cnn(C)c2)c1=O")
"163 nM"

Consider the molecule Nc1ncn(C2CC(O)C(CO)O2)c(=O)n1 (stereo unspecified) + CC(CO)NC(=O)c1cc(-c2ccc(Cl)cc2)nn(-c2cnn(C)c2)c1=O and give its recorded IC50. > 1000 nM

====

Tested on: 292921-168-R-J2-PDC complex spheroid growth
Test: Anticancer human tumor 292921-168-R-J2-PDC cell line growth inhibition [AhR];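 further: spheroids exposed to compounds for seven days after three days of growth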
Conditions: curve of first compound; second compound 3.16 µM
Description: Multicellular complex tumor spheroid response to aryl hydrocarbon receptor antagonists in combination with a variety of drugs and investigational agents in selected tumor cell lines […] Compounds. […] If the clinical Cmax for an agent had not been determined, the highest concentration tested was 10 microM (Table 1). […]
pIC50 overview
Just the number, please; pIC50 means minus log10 of the concentration in mol/L.

>>> measurement("O=C(C=Cc1cccc(S(=O)(=O)Nc2ccccc2)c1)NO + CC(CO)NC(=O)c1cc(-c2ccc(Cl)cc2)nn(-c2cnn(C)c2)c1=O")
6.84

Next:
Consider the compound Nc1ccccc1NC(=O)c1ccc(CNC(=O)OCc2cccnc2)cc1 + CC(CO)NC(=O)c1cc(-c2ccc(Cl)cc2)nn(-c2cnn(C)c2)c1=O and give its recorded pIC50. 6.94

Origin of values: PubChem BioAssay AID1918994
